src = ChEMBL document CHEMBL3861993

Tested on: Nonstructural protein 5A (Hepatitis C virus), Q5L478 [UNDEFINED MUTATION]
Assay: Inhibition of HCV genotype 1a NS5A L31V mutant after 3 day incubation by RT-PCR-cell-based HCV replicon assay
Conditions: Hepatitis C virus subtype 1a
QUANTITY MEASURED: EC90

INSERT INTO assay_data (mol, study_system, quantity_measured, recorded_measurement) VALUES
  ('COC(=O)N[C@H](C(=O)N1CCC[C@H]1c1ncc(-c2ccc3c(c2)OCn2c-3cc3cc(-c4cnc([C@@H]5CCCN5C(=O)[C@@H](NC(=O)OC)C(C)C)[nH]4)ccc32)[nH]1)C(C)C', 'Nonstructural protein 5A (Hepatitis C virus), Q5L478 [UNDEFINED MUTATION]', 'EC90', '6.5 nM'),
  ('COC(=O)N[C@H](C(=O)N1CCC[C@H]1c1ncc(-c2ccc3c(c2)Oc2ccc(-c4cnc([C@@H]5CCCN5C(=O)[C@@H](NC(=O)OC)C(C)C)[nH]4)c4c2N3CC4)[nH]1)C(C)C', 'Nonstructural protein 5A (Hepatitis C virus), Q5L478 [UNDEFINED MUTATION]', 'EC90', '100 nM'),
  ('COC(=O)N[C@H](C(=O)N1CCC[C@H]1c1ncc(-c2ccc3c(c2)OCc2c-3c(=O)oc3cc(-c4cnc([C@@H]5CCCN5C(=O)[C@@H](NC(=O)OC)C(C)C)[nH]4)ccc23)[nH]1)C(C)C', 'Nonstructural protein 5A (Hepatitis C virus), Q5L478 [UNDEFINED MUTATION]', 'EC90', '58.6 nM'),
  ('COC(=O)N[C@H](C(=O)N1CCC[C@H]1c1ncc(-c2cc3c4c(c2)CCc2cc(-c5cnc([C@@H]6CC(F)(F)CN6C(=O)[C@@H](NC(=O)OC)C(C)C)[nH]5)cc(c2-4)CC3)[nH]1)C(C)C', 'Nonstructural protein 5A (Hepatitis C virus), Q5L478 [UNDEFINED MUTATION]', 'EC90', '20.7 nM'),
  ('COC(=O)N[C@H](C(=O)N1CCC[C@H]1c1ncc(-c2cc3c4c(c2)CCc2cc(-c5cnc([C@@H]6CCCN6C(=O)[C@@H](NC(=O)OC)C(C)C)[nH]5)cc(c2-4)CC3)[nH]1)C(C)C', 'Nonstructural protein 5A (Hepatitis C virus), Q5L478 [UNDEFINED MUTATION]', 'EC90', '18.9 nM'),
  ('COC(=O)N[C@H](C(=O)N1CCC[C@H]1c1ncc(-c2cc3c4c(c2)CCc2cc(-c5cnc([C@@H]6C[C@@H](F)CN6C(=O)[C@@H](NC(=O)OC)C(C)C)[nH]5)cc(c2-4)CC3)[nH]1)C(C)C', 'Nonstructural protein 5A (Hepatitis C virus), Q5L478 [UNDEFINED MUTATION]', 'EC90', '26.2 nM'),
  ('COC(=O)N[C@H](C(=O)N1CCC[C@H]1c1ncc(-c2ccc3c(c2)OCC2=C3COc3cc(-c4cnc([C@@H]5CCCN5C(=O)[C@@H](NC(=O)OC)C(C)C)[nH]4)ccc32)[nH]1)C(C)C', 'Nonstructural protein 5A (Hepatitis C virus), Q5L478 [UNDEFINED MUTATION]', 'EC90', '0.33 nM');
